Recorded measurements of glycan array binding signal (z-score), one per entry
Target Under Test: Gal(b1-4)GlcNAc(b1-3)Gal(b1-4)GlcNAc(b1-2)[Gal(b1-4)GlcNAc(b1-3)Gal(b1-4)GlcNAc(b1-6)]Man(a1-6)[Gal(b1-4)GlcNAc(b1-3)Gal(b1-4)GlcNAc(b1-2)Man(a1-3)]Man(b1-4)GlcNAc(b1-4)[Fuc(a1-6)]GlcNAc
Protocol Notes: glycan array binding signal (z-score within array); higher = stronger binding
Condition Label: glycan notation: IUPAC condensed, linker removed
About 410 targets per protein were measured; listed, in parts, are those with the strongest signals and a random draw of the rest.
Parameter Measured: glycan array binding signal (z-score)

Binder	Recorded Number
Pwp7 (Candida glabrata) (protein) MGSSHHHHHHSSGLVPRGSHMASKNPVDFPNLCQYPNLDGAVAGFDTEIYNADPSILINFSLWPILQFPKEWHKTIGRAITTQTNFKLPASDTTLFGVSIPTQNILIEFRGYFIPPKSGTYTFALYLTDDGSAMFLGNDAAFPCGNITSWSNPTNDQVSVSDYDPKKKTLTVYMVAGVAYPLRIAYYNREKGGSLTASFVDPDGLTHSDWNGYIWTLPSCDNCKYS	0.752
Vd2LysM (Verticillium dahliae) (protein) YRRTCSHTGKGEGWYIIRRGDNFNAVAADFCTSTNVLTEWNHISTITDNMVNTKIKVPCRWNAGKQRDCLKDQKSSNGWYHIVSGDELKDIAYDFCTTSGSLAGMNGISNPDYIKANTDIVVPCSWN	2.2
SSR2 (Sclerotium rolfsii) (protein) MVYKITVRVYQTNPDAFFHPVEKTVWKYANGGTWSITDDQHVLTMGGSGTSGTLRFHADNGESFTATFGVHNYKRWCDIVTNLAADETGMVINQQYYSQKNREEARERQLSNYQVKNAKGRNFQIVYTEAEGNDLHANLIIG	-0.229
LngA (Escherichia coli) (protein) MLSVYNRTQKFKAEARKKIAKYHELRKQRGMSLLEVIIVLGIIGTIAAGVVILAQRAFDSRAVTDLVTNTNTVRVRMKDAYQRDGKYPDFVDPLSLTANTIKTDTSGIPAAQLVQLGKITPDEVRNNISGDFIAIGGALTSNGAQVKKGFAIELNGLSQEQCRSILGQVGNNWEYVAIGTSASGSYAMTATGVDMSVAASTTVLRSLGNNGQTTLTADKILSTCTAQVNSITLGSR	4.27
